Source of measurements: PubChem BioAssay (NCI)

# Test system: UACC-62 melanoma
# experiment-summary: NCI tumour cell line growth inhibition, 48 h

{"compound": "CC(C#N)(c1ccccc1)N(CCc1ccccc1)C(=O)Oc1ccccc1 (stereo not given)", "TGI": "> 100 µM"}
{"compound": "CC(C)(C)N(Cc1ccccc1)C(=O)/C=C\\S(=O)c1ccccc1 (stereo not given)", "TGI": "15.2 µM"}
{"compound": "COc1cc(CN=c2nc(N(C)C)ss2)cc(OC)c1OC", "TGI": "> 10 µM"}
{"compound": "COc1cc2c(c3oc(-c4ccc(O)cc4)c(O)c(=O)c13)CCC(C)(C)O2", "TGI": "0.616 µM"}
{"compound": "O=C1C2C3C4C1C1C2[C@H](OCc2ccccc2)C3C1[C@H]4OCc1ccccc1 (stereo not given in full)", "TGI": "> 100 µM"}
{"compound": "COC(=O)C(=O)C(C(=O)C(=O)Nc1ccc(Cl)c(Cl)c1)c1nc2ccc(C(=O)c3ccccc3)cc2[nH]c1=O (stereo not given)", "TGI": "> 100 µM"}
{"compound": "O=C(O)c1ccccc1CN1CCCC(C(=O)O)C1 (stereo not given)", "TGI": "> 100 µM"}
{"compound": "C#CCN(Cc1ccc2nc(-c3ccccc3)c(Cl)nc2c1)c1ccc(F)cc1", "TGI": "> 100 µM"}
{"compound": "OCC(O)COCn1cc(Cn2ncc3c(SCc4ccccc4)ncnc32)nn1 (stereo not given)", "TGI": "> 100 µM"}
{"compound": "N#Cc1cc2c(cc1C#N)SCCSCCCSCCS2", "TGI": "27.6 µM"}

====

# Test system: RPMI-8226 leukemia
# experiment-summary: NCI tumour cell line growth inhibition, 48 h; in the data active = GI50 below about 0.43 µM; inactive = the rest
Labels: Yes = active, No = inactive

{"compound": "CCCCn1c(=O)[nH]c(N)c([C@@H]2c3c([nH]c(=O)n(CCCC)c3=O)Oc3ccc4ccccc4c32)c1=O", "label-class": "No"}
{"compound": "COc1cc(/C=C/C(=O)c2cccc(-n3cc(-c4ccccc4)[nH]c3=O)c2)cc(OC)c1OC", "label-class": "No"}
{"compound": "C=CCC1(O)c2ccccc2C(=O)c2c(OCC(=O)OCC)ccc(OCC(=O)OCC)c21 (centres undefined)", "label-class": "No"}
{"compound": "O=C(O)c1ccc(N(/C=C/C(=O)C(F)(F)F)Cc2ccc(Cl)cc2)cc1", "label-class": "No"}
{"compound": "O=C(N/N=C/c1ccc(Cl)cc1)c1ccc(NC(=O)c2ccccn2)cc1", "label-class": "No"}
{"compound": "O=C(CCCc1ccc(N(CCCl)CCCl)cc1)NCc1ccccc1", "label-class": "No"}
{"compound": "CC1(C)N=C(N)N=C(N)N1c1ccc(OCCCNC(=O)Nc2ccc(S(=O)(=O)F)cc2)c(Cl)c1", "label-class": "No"}
{"compound": "CC(C)=CCc1cc2c(cc1O)C1=C(C(=O)C3=C(NCCS3(=O)=O)C1=O)C(C=C(C)C)O2 (centres undefined)", "label-class": "No"}
{"compound": "Sc1cccc2cccnc12", "label-class": "No"}
{"compound": "COC(=O)N[C@H]1CCc2cc(OC)c(OC)c(OC)c2-c2ccc(SC)c(=O)cc21", "label-class": "Yes"}
{"compound": "C[C@@H]1CN2[C@H]3[C@@H]1CC[C@]31CCC(=O)O[C@]1(C)[C@H]1CC[C@H]3CCC=C3[C@@H]12", "label-class": "No"}
{"compound": "CCOC(=O)c1noc2c1CCc1c-2cn(Cc2ccc(OC)cc2)c1-c1cc(OC)c(OC)c(OC)c1", "label-class": "No"}
{"compound": "COc1cc2cc(NCc3cccc(Cl)c3)nc(C)c2cc1OC", "label-class": "No"}
{"compound": "CC1=C(CCCOC(=O)[C@H](N)CC(C)C)C2=C(C)C3(CC3)[C@@](C)(O)C(=O)C2=C1", "label-class": "No"}
{"compound": "CCC(=C(c1ccc(OCCN2CCCCC2)cc1)c1ccc(OCCN2CCCCC2)cc1)c1ccc(Cl)cc1", "label-class": "No"}
{"compound": "CNC(=O)Oc1cc(C(C)C)ccc1Sc1ccc(C(C)C)cc1OC(=O)NC", "label-class": "No"}
{"compound": "Cc1cc(I)cc(CNCCN(C)C)c1O", "label-class": "No"}
{"compound": "CN1CCN(Cc2ccc(NC(=O)c3cncc(C#Cc4cnc(N)c5ncccc45)c3)cc2C(F)(F)F)CC1", "label-class": "Yes"}
{"compound": "Cn1cc(-c2ccc3nc(-c4ccc(CC(=O)Nc5cc(C(C)(C)C)no5)cc4)cnc3c2)cn1", "label-class": "Yes"}
